assay: Vesicle radius and PDI by DLS; conditions: sugar vesicles, 500 mM sugar, PBS 1×, after 24 h
Measurement name: Vesicle PDI

1. O=C[C@H](O)[C@@H](O)[C@H](O)[C@H](O)CO    0.17
2. O=C[C@H](O)[C@@H](O)[C@@H](O)[C@H](O)CO    0.20
3. OC[C@H]1O[C@H](O[C@H]2[C@H](O)[C@@H](O)[C@H](O)O[C@@H]2CO)[C@H](O)[C@@H](O)[C@@H]1O    0.13
4. O=C[C@@H](O)[C@@H](O)[C@H](O)[C@H](O)CO    0.18
5. O=S(=O)(O)N[C@H]1C(O)O[C@H](CO)[C@@H](O)[C@@H]1O (stereo partly drawn) [D-glucosamine-2-sulfate]    0.06
6. OC[C@H]1O[C@@](CO)(O[C@H]2O[C@H](CO)[C@@H](O)[C@H](O)[C@H]2O)[C@@H](O)[C@@H]1O    0.12
7. COC1OC(CO)C(O)C(O)C1O [α-D-methylglucoside]    0.19
8. O=C[C@H](O)[C@H](O)[C@H](O)CO    0.20

----------
experiment: Vesicle radius and PDI by DLS; conditions: sugar vesicles, 500 mM sugar, PBS 1×, after 24 h
Measurement name: Vesicle Radius (nm)

1. O=C[C@H](O)[C@@H](O)[C@H](O)[C@H](O)CO    75
2. O=C[C@H](O)[C@H](O)[C@H](O)CO    72
3. OC[C@H]1O[C@H](O[C@H]2[C@H](O)[C@@H](O)[C@H](O)O[C@@H]2CO)[C@H](O)[C@@H](O)[C@@H]1O    80
4. COC1OC(CO)C(O)C(O)C1O [α-D-methylglucoside]    75
5. O=C[C@@H](O)[C@@H](O)[C@H](O)[C@H](O)CO    74
6. O=C[C@H](O)[C@@H](O)[C@@H](O)[C@H](O)CO    83
7. OC[C@H]1O[C@@](CO)(O[C@H]2O[C@H](CO)[C@@H](O)[C@H](O)[C@H]2O)[C@@H](O)[C@@H]1O    82
8. O=S(=O)(O)N[C@H]1C(O)O[C@H](CO)[C@@H](O)[C@@H]1O (stereo partly drawn) [D-glucosamine-2-sulfate]    69

----------
test: Encapsulation in catanionic SVs (gel filtration, then NMR or ICP-AES); format: physicochemical; details: prepared in 500 mM sugar, PBS 1×
Measurement name: EE (%)

1. OC[C@H]1O[C@H](O[C@H]2[C@H](O)[C@@H](O)[C@H](O)O[C@@H]2CO)[C@H](O)[C@@H](O)[C@@H]1O [D-maltose]    1.2
2. O=C[C@H](O)[C@H](O)[C@H](O)CO [D-ribose]    0.084
3. O=S(=O)(O)N[C@H]1C(O)O[C@H](CO)[C@@H](O)[C@@H]1O (stereo partly drawn) [D-glucosamine-2-sulfate]    1.0

----------
test: Encapsulation in catanionic SVs (gel filtration, then NMR or ICP-AES); assay type: physicochemical; conditions: prepared in 500 mM sugar, PBS 1×
Field: label. Allowed values: y (EE (%) < 0.9%) or n (EE (%) >= 0.9%).

1. O=C[C@H](O)[C@@H](O)[C@H](O)[C@H](O)CO    n
2. OC[C@H]1O[C@@](CO)(O[C@H]2O[C@H](CO)[C@@H](O)[C@H](O)[C@H]2O)[C@@H](O)[C@@H]1O    y
3. O=C[C@@H](O)[C@@H](O)[C@H](O)[C@H](O)CO    y
4. O=C[C@H](O)[C@@H](O)[C@@H](O)[C@H](O)CO    y
5. COC1OC(CO)C(O)C(O)C1O [α-D-methylglucoside]    y

----------
The following molecules are listed with their measured [Drug], mM (in purified vesicles) values.
Experiment: Encapsulation in catanionic SVs (gel filtration, then NMR or ICP-AES)
Type: physicochemical
Conditions: chemotherapeutic drugs in SDBS-rich SVs, PBS 1×
Experimental: Vesicles were formed in the presence of several different sugars, purified by gel filtration, and the encapsulated sugar concentration measured by NMR (Table 3). Table 6 summarizes the EE and drug concentration achieved with each of the chemotherapeutic agents under the standard SDBS-rich SVs formulation method. The gel was flushed with two column-volumes of PBS 1×. Next, 1.0 mL of crude vesicle suspension was loaded onto the column and gravity fed into the gel. […]
Measurement name: [Drug], mM (in purified vesicles)

1. COc1cccc2c1C(=O)c1c(O)c3c(c(O)c1C2=O)C[C@@](O)(C(=O)CO)C[C@@H]3O[C@H]1C[C@H](N)[C@H](O)[C@H](C)O1    0.15 ± 0.02 mM
2. N.N.[Cl][Pt][Cl] [Cisplatin, cisplatin]    0.05 ± 0.01 mM
3. Nc1nc2[nH]cc(CCc3ccc(C(=O)N[C@@H](CCC(=O)O)C(=O)O)cc3)c2c(=O)[nH]1    0.45 ± 0.09 mM
4. N.N.O=C([O-])C1(C(=O)[O-])CCC1.[Pt+2]    0.5 ± 0.1 mM

----------
The following compounds are listed with their measured First Order Rate Constant k values.
Details: 25° C., PBS 1× pH 7.4, 60:40 w/w SDBS rich vesicles, 500 mM sugar
Method: To assess the rate of encapsulated substrate release, dialysis was initially considered. […] The assay was to remove aliquots from SVs-encapsulated formulations at time intervals and re-purify the aliquot by size-exclusion chromatography (SEC). […] The quantity of carbohydrate released was determined by ^1H-NMR (FIG. 28). Using the SEC method, the initial rate of glucose release was analyzed for vesicle encapsulated glucose solutions at varying concentrations. […]
Measurement name: First Order Rate Constant k (h⁻¹)

1. O=S(=O)(O)N[C@H]1C(O)O[C@H](CO)[C@@H](O)[C@@H]1O (stereo partly drawn) [D-glucosamine-2-sulfate]    0.29
2. O=C[C@H](O)[C@@H](O)[C@@H](O)[C@H](O)CO    0.16
3. O=C[C@@H](O)[C@@H](O)[C@H](O)[C@H](O)CO    0.26
4. COC1OC(CO)C(O)C(O)C1O [α-D-methylglucoside]    3.7
5. O=C[C@H](O)[C@@H](O)[C@H](O)[C@H](O)CO    0.12

----------
assay: Vesicle radius and PDI by DLS; conditions: drug-loaded catanionic SVs
Measurement name: Vesicle Radius (nm)

1) N.N.[Cl][Pt][Cl] [Cisplatin, cisplatin]    76
2) COc1cccc2c1C(=O)c1c(O)c3c(c(O)c1C2=O)C[C@@](O)(C(=O)CO)C[C@@H]3O[C@H]1C[C@H](N)[C@H](O)[C@H](C)O1    91
3) Nc1nc2[nH]cc(CCc3ccc(C(=O)N[C@@H](CCC(=O)O)C(=O)O)cc3)c2c(=O)[nH]1    73
4) N.N.O=C([O-])C1(C(=O)[O-])CCC1.[Pt+2]    74

----------
The following compounds are listed with their measured EE (%) values.
Experiment: Encapsulation in catanionic SVs (gel filtration, then NMR or ICP-AES)
Type: physicochemical
Details: chemotherapeutic drugs in SDBS-rich SVs, PBS 1×
Experimental: Vesicles were formed in the presence of several different sugars, purified by gel filtration, and the encapsulated sugar concentration measured by NMR (Table 3). Table 6 summarizes the EE and drug concentration achieved with each of the chemotherapeutic agents under the standard SDBS-rich SVs formulation method. The gel was flushed with two column-volumes of PBS 1×. Next, 1.0 mL of crude vesicle suspension was loaded onto the column and gravity fed into the gel. […]
Measurement name: EE (%)

1. N.N.[Cl][Pt][Cl] [Cisplatin, cisplatin]    2.1%
2. N.N.O=C([O-])C1(C(=O)[O-])CCC1.[Pt+2]    1.9%
3. COc1cccc2c1C(=O)c1c(O)c3c(c(O)c1C2=O)C[C@@](O)(C(=O)CO)C[C@@H]3O[C@H]1C[C@H](N)[C@H](O)[C@H](C)O1    61%
4. Nc1nc2[nH]cc(CCc3ccc(C(=O)N[C@@H](CCC(=O)O)C(=O)O)cc3)c2c(=O)[nH]1    0.80%

----------
The following molecules are listed with their measured Vesicle PDI values.
assay: Vesicle radius and PDI by DLS; conditions: drug-loaded catanionic SVs
Measurement name: Vesicle PDI

1) N.N.[Cl][Pt][Cl] [Cisplatin, cisplatin]    0.16
2) N.N.O=C([O-])C1(C(=O)[O-])CCC1.[Pt+2]    0.19
3) COc1cccc2c1C(=O)c1c(O)c3c(c(O)c1C2=O)C[C@@](O)(C(=O)CO)C[C@@H]3O[C@H]1C[C@H](N)[C@H](O)[C@H](C)O1    0.25
4) Nc1nc2[nH]cc(CCc3ccc(C(=O)N[C@@H](CCC(=O)O)C(=O)O)cc3)c2c(=O)[nH]1    0.17

----------
experiment: Encapsulation in catanionic SVs (gel filtration, then NMR or ICP-AES); assay type: physicochemical; conditions: prepared in 500 mM sugar, PBS 1×
Measurement name: [Sugar], mM (in purified vesicles) (mM)

1. O=C[C@H](O)[C@@H](O)[C@@H](O)[C@H](O)CO [D-galactose]    2.7
2. COC1OC(CO)C(O)C(O)C1O [α-D-methylglucoside]    0.6
3. OC[C@H]1O[C@@](CO)(O[C@H]2O[C@H](CO)[C@@H](O)[C@H](O)[C@H]2O)[C@@H](O)[C@@H]1O [D-sucrose]    3.2
4. OC[C@H]1O[C@H](O[C@H]2[C@H](O)[C@@H](O)[C@H](O)O[C@@H]2CO)[C@H](O)[C@@H](O)[C@@H]1O [D-maltose]    4.1
5. O=C[C@@H](O)[C@@H](O)[C@H](O)[C@H](O)CO [D-mannose]    2.9
6. O=C[C@H](O)[C@H](O)[C@H](O)CO [D-ribose]    0.28
7. O=C[C@H](O)[C@@H](O)[C@H](O)[C@H](O)CO [D-glucose]    3.7
8. O=S(=O)(O)N[C@H]1C(O)O[C@H](CO)[C@@H](O)[C@@H]1O (stereo partly drawn) [D-glucosamine-2-sulfate]    3.3

Data provenance is patent US20230081679A1.
